- test.system: mouse RORγ (Mus musculus, UniProt P51450)
- Construct: mouse, NM_011281.2 and from Ile251 to Lys516; expressed in transfected cells; host or cells: CHO cells (transient co-transfection with pG5-Luc reporter)
- experiment.notes: Luciferase reporter gene assay of inhibitory effect against RORγ transcriptional activity (GAL4-mRORγ plasmid in CHO cells)
- Assay type: cell-based
- conditions.used: read-out: LUC EC50 (μM) mRORg
measure.name: EC50

• Cc1ccc(NC(=O)C[C@@H](CCO)c2nnc(CCCC(C)(C)C)n2C2CC2)c(C)c1 = > 3 µM
• Cc1ccc(NC(=O)CCc2nnc(CCC(C)(C)C)n2C2CC2)c(C)c1 = < 3 µM
• Cc1ccc(NC(=O)CC(CCO)c2nnc(CCCC(C)C)n2C2CC2)c(C)c1 (racemic) = < 3 µM
• Cc1c(Cl)cccc1NC(=O)CC(CCCO)c1nnc(CCC(C)C)n1C1CC1 (racemic) = < 3 µM
• CC(=O)N1C[C@@H](C(=O)Nc2ccc(C)cc2C)[C@H](c2nnc(CCCC(C)(C)C)n2CC(F)(F)F)C1 = > 3 µM
• C=CCC(CC(=O)Nc1cccc(Cl)c1C)c1nnc(CCCC(C)C)n1C1CC1 (racemic) = < 3 µM
• Cn1c(CCC(=O)Nc2cccc3ccccc23)nnc1C1Cc2ccccc2C1 = < 3 µM
• Cc1ccc(NC(=O)C[C@H](CCC(=O)O)c2noc(-c3cc(C4CC(F)(F)C4)on3)c2C2CC2)c(Cl)c1 = < 3 µM

====

pEC50 by entry:
- test.system: mouse RORγ (Mus musculus)
- Construct: mouse, NM_011281.2 and from Ile251 to Lys516; expressed in transfected cells; host or cells: CHO cells (transient co-transfection with pG5-Luc reporter)
- Sequence (P51450 251-516): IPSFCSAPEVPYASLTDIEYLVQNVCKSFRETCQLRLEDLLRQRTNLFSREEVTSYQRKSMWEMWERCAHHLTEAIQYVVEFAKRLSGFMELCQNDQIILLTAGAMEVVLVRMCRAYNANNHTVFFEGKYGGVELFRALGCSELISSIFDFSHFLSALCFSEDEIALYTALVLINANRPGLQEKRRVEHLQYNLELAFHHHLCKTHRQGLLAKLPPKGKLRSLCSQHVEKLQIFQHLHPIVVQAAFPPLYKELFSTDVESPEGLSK
- experiment.notes: Luciferase reporter gene assay of inhibitory effect against RORγ transcriptional activity (GAL4-mRORγ plasmid in CHO cells)
- Type: cell-based
- conditions.used: read-out: LUC EC50 mRORg
pEC50: −log10 of the molar value.
measure.name: pEC50

• Cc1ccc(NC(=O)CCc2noc([C@H]3C[C@@H](CC(C)C)C3)c2CCC(=O)O)c(C)c1 = < 5.52
• Cc1ccc(NC(=O)C[C@H](CCC(=O)O)c2noc3c2C(C)CCC3CCC(C)C)c(Cl)c1 (single isomer, unassigned) [Example F-693] = > 5.52
• Cc1cc(Cl)ccc1NC(=O)C[C@H](OC(C)C)c1nnc(-c2cc(CC(C)C)on2)n1C1CC1 = > 5.52
• Cc1ccc(NC(=O)C[C@@H](CCCO)c2nnc([C@H]3C[C@@H](CC(C)C)C3)n2C2CC2)c(C)c1 = < 5.52
• CC(=O)c1ccc(NC(=O)C[C@H](CCC(=O)O)c2noc([C@H]3C[C@@H](CC(C)(C)CO)C3)c2C2CC2)c(Cl)c1 = < 5.52
• Cc1ccc(NC(=O)C[C@H](c2nnc([C@H]3C[C@@H](CC(C)C)C3)n2C2CC2)[C@H]2C[C@@H](O)C2)c(C)c1 = < 5.52

====

- test.system: human RORγ (Homo sapiens, UniProt P51449)
- Construct: human, NM_005060.3 and from Ser253 to Lys518; expressed in transfected cells; host or cells: CHO cells (transient co-transfection with pG5-Luc reporter)
- Sequence (P51449 253-518): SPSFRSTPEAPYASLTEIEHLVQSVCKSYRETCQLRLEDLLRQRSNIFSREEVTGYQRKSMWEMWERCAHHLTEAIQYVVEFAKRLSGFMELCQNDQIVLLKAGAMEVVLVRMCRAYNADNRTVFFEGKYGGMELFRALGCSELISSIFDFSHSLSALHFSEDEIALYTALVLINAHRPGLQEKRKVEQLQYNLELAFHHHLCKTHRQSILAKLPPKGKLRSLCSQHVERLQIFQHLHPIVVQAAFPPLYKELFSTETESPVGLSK
- experiment.notes: Luciferase reporter gene assay of inhibitory effect against RORγ transcriptional activity (GAL4-hRORγ plasmid in CHO cells)
- Type: cell-based
- conditions.used: read-out: LUC EC50 (μM) hRORg
EC50 by entry:
measure.name: EC50

- Cc1ccc(NC(=O)CCc2nnc(CCC(C)(C)C)n2C2CC2)c(C)c1: > 3 µM
- Cc1c(Cl)cccc1NC(=O)CCc1nnc(C(O)CC(C)C)n1C1CC1 (racemic): > 3 µM
- Cc1c(Cl)cccc1NC(=O)CCc1nnc(CCN2CCC(F)(F)CC2)n1C1CC1: > 3 µM
- O=C(CCc1nnc(C2Cc3ccccc3C2)[nH]1)Nc1cccc2ccccc12: > 3 µM
- CC(F)(F)c1c([C@@H](CCC(=O)O)CC(=O)Nc2ccc(Cl)cc2F)noc1-c1cc(C(F)(F)C(C)(C)C)on1: < 3 µM
- Cc1c(Cl)cccc1NC(=O)CCc1nnc(C2CN(CC(C)C)C2)n1C1CC1: > 3 µM
- CC(=O)N1C[C@H](C(=O)Nc2ccc(C)cc2C)[C@@H](c2nnc(C3CN(C(=O)CC(C)(C)C)C3)n2C2CC2)C1 (racemic): > 3 µM
- Cc1cccc(O)c1NC(=O)CCc1nnc(CCC(C)C)n1C1CC1: > 3 µM
- CCCn1c(CCC(=O)Nc2cccc3ccccc23)nnc1C1Cc2ccccc2C1: > 3 µM
- CC(=O)N1C[C@H](C(=O)Nc2ccc(C)cc2C)[C@@H](c2nnc([C@H]3C[C@H](OC(C)C)C3)n2C2CC2)C1 [Example F-334]: < 3 µM
- Cc1ccc(NC(=O)C[C@@H](CCO)c2nnc([C@H]3C[C@@H](CC(C)C)C3)n2C2CC2)c(C)c1: > 3 µM
- CC(=O)N1C[C@@H](C(=O)Nc2ccc(C)cc2C)[C@H](c2nnc(CCCC(C)(C)C)n2CC(F)(F)F)C1: > 3 µM
- CC(=O)N1C[C@H](C(=O)Nc2ccc(C)cc2C)[C@@H](c2nnc(-c3ccc(C(C)C)cc3)n2C2CC2)C1 [Example F-411]: < 3 µM
- CCn1c(C(O)CC(=O)Nc2cccc3ccccc23)nnc1C1Cc2ccccc2C1 (racemic): > 3 µM
- Cn1c(CCC(=O)Nc2cccc3ccccc23)nnc1C1Cc2ccccc2C1: > 3 µM
- CNC(=O)CCC(CC(=O)Nc1ccc(C)cc1C)c1nnc(CCCC(C)C)n1C1CC1 (racemic): > 3 µM
- CCn1c(CCC(=O)Nc2cccc3ccccc23)nnc1CCC(C)C: > 3 µM
- Cc1c(Cl)cccc1NC(=O)CCc1nnc(CCC(C)(C)C(=O)N(C)C)n1C1CC1: > 3 µM
- Cc1c(Cl)cccc1NC(=O)CC(CCO)c1nnc(CCC2CCCCC2)n1C1CC1 (racemic): < 3 µM
- Cc1ccc(NC(=O)C[C@H](CCC(=O)O)c2noc(-c3cc(C(F)(F)C(C)(C)C)on3)c2C2CC2)c(F)c1: < 3 µM
- Cc1ccc(NC(=O)C(C)C(CCO)c2nnc([C@H]3C[C@@H](CC(C)C)C3)n2C2CC2)c(C)c1 (single isomer, unassigned) [Example F-490]: > 3 µM
- Cc1ccc(NC(=O)C[C@H](Cc2nccs2)c2nnc([C@H]3C[C@@H](CC(C)C)C3)n2C2CC2)c(C)c1: < 3 µM
- CCn1c(CCC(=O)NC23CC4CC(CC(C4)C2)C3)nnc1C1Cc2ccccc2C1: > 3 µM
- CC(=O)N1CC([C@@H](CC(=O)Nc2ccc(C)cc2C)c2nnc([C@H]3C[C@@H](CC(C)C)C3)n2C2CC2)C1: < 3 µM
- Cc1ccc(NC(=O)CC(CCC(N)=O)c2nnc(CCCC(C)C)n2C2CC2)c(C)c1 (racemic): > 3 µM
- Cc1ccc(NC(=O)[C@H]2CN(c3nc(C)cs3)C[C@@H]2c2nnc(CCCC(C)(C)C)n2C2CC2)c(C)c1 (racemic): < 3 µM
- CCn1c(CCC(=O)Nc2cc(C)cc(C)c2)nnc1C1Cc2ccccc2C1: > 3 µM
- Cc1c(Cl)cccc1NC(=O)CCc1nnc(C#CC(C)C)n1C1CC1: > 3 µM
- CC(=O)N1C[C@H](C(=O)Nc2ccc(C)cc2C)[C@@H](c2nnc(CCCC(C)(C)C)n2CC(F)(F)F)C1 (racemic) [Example F-356]: < 3 µM
- Cc1ccc(NC(=O)CCc2nnc(CCC(C)C)n2C2CC2)cc1C: > 3 µM

====

- test.system: mouse RORγ (Mus musculus, UniProt P51450)
- Construct: mouse, NM_011281.2 and from Ile251 to Lys516; expressed in transfected cells; host or cells: CHO cells (transient co-transfection with pG5-Luc reporter)
- experiment.notes: Luciferase reporter gene assay of inhibitory effect against RORγ transcriptional activity (GAL4-mRORγ plasmid in CHO cells)
- Assay type: cell-based
- conditions.used: read-out: LUC EC50 (μM) mRORg
EC50 by entry:
measure.name: EC50

- Cc1ccc(NC(=O)[C@H]2CCCN[C@@H]2c2nnc(CCCC(C)(C)C)n2C2CC2)c(C)c1: < 3 µM
- Cc1ccc(NC(=O)C[C@H](CCC(=O)O)c2noc(-c3cc(CC(C)C)on3)c2C(F)(F)F)c(F)c1: < 3 µM
- Cc1c(Cl)cccc1NC(=O)CCc1nnc(CC[C@H]2CC[C@H](C(=O)O)CC2)n1C1CC1: > 3 µM
- Cc1ccc(NC(=O)C[C@H](CCC(=O)O)c2noc(-c3cc(C(C)(C)C)on3)c2C2CC2)c(Cl)c1: < 3 µM
